- Measured target: Angiotensin II receptor (AT-1) type-1 (Rattus norvegicus, UniProt P29089+P25095)
- Assay text: Specific binding inhibition of [125I]AII to Angiotensin II receptor, type 1 in rat liver membrane
- Type: cell membranes
In plain terms, low IC50, meaning strictly below 0.3 nM, gives YES, and everything else gives NO.

# Structure as smiles, Category label
data = [
    ("CCCCc1nc(SC)c(C(=O)O)n1Cc1ccc(-c2ccccc2S(=O)(=O)NC(C)=O)cc1", "NO"),
    ("CCCCc1nc(SC)c(C(=O)O)n1Cc1ccc(-c2ccccc2S(=O)(=O)NC(=O)Cc2ccccc2)cc1", "YES"),
    ("CCCCc1nc(SC(F)F)c(C(=O)O)n1Cc1ccc(-c2ccccc2S(=O)(=O)NC(=O)NCCC)cc1", "NO"),
    ("CCCCc1nc(SC)c(C(=O)NCC(=O)OC)n1Cc1ccc(-c2ccccc2S(=O)(=O)NC(=O)NCCC)cc1", "NO"),
    ("CCCCc1nc(SCCCO)c(C(=O)O)n1Cc1ccc(-c2ccccc2S(=O)(=O)NC(=O)NCCC)cc1", "YES"),
    ("CCCCc1nc(SC)c(C(=O)O)n1Cc1ccc(-c2ccccc2S(=O)(=O)NC(=O)OCC=C(C)C)cc1", "NO"),
    ("CCCCc1nc(Sc2cccs2)c(C(=O)O)n1Cc1ccc(-c2ccccc2S(=O)(=O)NC(=O)NCCC)cc1", "YES"),
    ("CCCCc1nc(SC)c(C(=O)OCC)n1Cc1ccc(-c2ccccc2S(=O)(=O)NC(=O)NCCC)cc1", "NO"),
    ("CCCCc1nc(SC)c(C(=O)NS(=O)(=O)c2ccccc2)n1Cc1ccc(-c2ccccc2S(=O)(=O)NC(=O)NCCC)cc1", "NO"),
    ("CCCCc1nc(SC)c(C(=O)OCc2ccccc2)n1Cc1ccc(-c2ccccc2S(=O)(=O)NC(=O)NCCC)cc1", "YES"),
    ("CCCNC(=O)NS(=O)(=O)c1ccccc1-c1ccc(Cn2c(C3CC3)nc(SC)c2C(=O)O)cc1", "NO"),
    ("CCCNC(=O)NS(=O)(=O)c1ccccc1-c1ccc(Cn2c(C)nc(SC)c2C(=O)O)cc1", "NO"),
    ("CCCNC(=O)NS(=O)(=O)c1ccccc1-c1ccc(Cn2c(CCC)nc(SC)c2C(=O)O)cc1", "YES"),
    ("CCCCc1nc(SC)c(C(=O)O)n1Cc1ccc(-c2ccccc2C(=O)NC(=O)NCCC)cc1", "NO"),
]

----------
- Measured target: Angiotensin II receptor (AT-1) type-1 (Rattus norvegicus, UniProt P29089+P25095)
- Assay text: Specific binding inhibition of [125I]AII to Angiotensin II receptor, type 1 in rat liver membrane
- Format: cell membranes

# Structure as smiles, Measured target, IC50
records = [
    ("CCCCc1nc(SCCCCO)c(C(=O)O)n1Cc1ccc(-c2ccccc2S(=O)(=O)NC(=O)NCCC)cc1", "Angiotensin II receptor (AT-1) type-1 (Rattus norvegicus, UniProt P29089+P25095)", "0.4 nM"),
    ("CCCCc1nc(SC)c(C(=O)NC(C)=O)n1Cc1ccc(-c2ccccc2S(=O)(=O)NC(=O)NCCC)cc1", "Angiotensin II receptor (AT-1) type-1 (Rattus norvegicus, UniProt P29089+P25095)", "1.7 nM"),
    ("CCCCc1nc(Cl)c(C(=O)O)n1Cc1ccc(-c2ccccc2S(=O)(=O)NC(=O)NCCC)cc1", "Angiotensin II receptor (AT-1) type-1 (Rattus norvegicus, UniProt P29089+P25095)", "1 nM"),
    ("CCCCc1nc(SCC(F)(F)F)c(C(=O)O)n1Cc1ccc(-c2ccccc2S(=O)(=O)NC(=O)NCCC)cc1", "Angiotensin II receptor (AT-1) type-1 (Rattus norvegicus, UniProt P29089+P25095)", "0.6 nM"),
    ("CCCCc1nc(SC)c(C(N)=O)n1Cc1ccc(-c2ccccc2S(=O)(=O)NC(=O)NCCC)cc1", "Angiotensin II receptor (AT-1) type-1 (Rattus norvegicus, UniProt P29089+P25095)", "1 nM"),
    ("CCCCc1nc(SC)c(C(=O)OC(C)(C)C)n1Cc1ccc(-c2ccccc2S(=O)(=O)NC(=O)NCCC)cc1", "Angiotensin II receptor (AT-1) type-1 (Rattus norvegicus, UniProt P29089+P25095)", "0.6 nM"),
    ("CCCCc1nc(SC)cn1Cc1ccc(-c2ccccc2S(=O)(=O)NC(=O)NCCC)cc1", "Angiotensin II receptor (AT-1) type-1 (Rattus norvegicus, UniProt P29089+P25095)", "2.6 nM"),
    ("CCCNC(=O)NS(=O)(=O)c1ccccc1-c1ccc(Cn2c(CC)nc(SC)c2C(=O)O)cc1", "Angiotensin II receptor (AT-1) type-1 (Rattus norvegicus, UniProt P29089+P25095)", "1.3 nM"),
]

----------
- Measured target: Angiotensin II receptor (AT-1) type-1 (Rattus norvegicus) (UniProt P29089+P25095)
- Assay text: Inhibition of pressor response induced by infusion of angiotensin II in rats, administered perorally
- Assay type: functional
In plain terms, low ID50, meaning strictly below 2 mg/kg, gives true (1), and everything else gives false (0).

# Structure as smiles, Category label
data = [
    ("CCCCc1nc(SC(F)(F)F)c(C(=O)O)n1Cc1ccc(-c2ccccc2S(=O)(=O)NC(=O)NCCC)cc1", "true (1)"),
    ("CCCCc1nc(SC)c(C(=O)O)n1Cc1ccc(-c2ccccc2S(=O)(=O)NC(=O)Cc2ccccc2)cc1", "true (1)"),
    ("CCCCc1nc(Cl)c(C(=O)O)n1Cc1ccc(-c2ccccc2S(=O)(=O)NC(=O)NCCC)cc1", "false (0)"),
    ("CCCCc1nc(SC(F)F)c(C(=O)O)n1Cc1ccc(-c2ccccc2S(=O)(=O)NC(=O)NCCC)cc1", "true (1)"),
    ("CCCCc1nc(SC)c(C(=O)OCc2ccccc2)n1Cc1ccc(-c2ccccc2S(=O)(=O)NC(=O)NCCC)cc1", "true (1)"),
]

----------
- Measured target: Angiotensin II receptor (AT-1) type-1 (Rattus norvegicus) (UniProt P29089+P25095)
- Assay text: Inhibition of pressor response induced by infusion of AII in rats when dose is administered intravenously
- Type: functional
Listed below: log10 ID50 values for each entry.
Parameter: log10 ID50 (log10 of the value in mg/kg)

# Structure as smiles, log10 ID50
data = [
    ("CCCCc1nc(SC)c(C(=O)O)n1Cc1ccc(-c2ccccc2S(N)(=O)=O)cc1", 0.75),
    ("CCCCOC(=O)NS(=O)(=O)c1ccccc1-c1ccc(Cn2c(CCCC)nc(SC)c2C(=O)O)cc1", -1.00),
    ("C=CCNC(=O)NS(=O)(=O)c1ccccc1-c1ccc(Cn2c(CCCC)nc(SC)c2C(=O)O)cc1", -0.96),
    ("CCCCc1nc(SC)c(C(=O)O)n1Cc1ccc(-c2ccccc2S(=O)(=O)NC(=O)NC)cc1", -0.57),
    ("CCCCc1nc(SC)c(C(=O)O)n1Cc1ccc(-c2ccccc2S(=O)(=O)NC(=O)OCC)cc1", -1.15),
    ("CCCCc1nc(SC)cn1Cc1ccc(-c2ccccc2S(=O)(=O)NC(=O)NCCC)cc1", -0.15),
    ("CCCCc1nc(SC)c(C(=O)OCC)n1Cc1ccc(-c2ccccc2S(=O)(=O)NC(=O)NCCC)cc1", -1.10),
    ("CCCCc1nc(SC)c(C(N)=O)n1Cc1ccc(-c2ccccc2S(=O)(=O)NC(=O)NCCC)cc1", -1.22),
    ("CCCCc1nc(SCCCO)c(C(=O)O)n1Cc1ccc(-c2ccccc2S(=O)(=O)NC(=O)NCCC)cc1", -0.96),
]

----------
- Measured target: Angiotensin II receptor (AT-1) type-1 (Rattus norvegicus, UniProt P29089+P25095)
- Assay text: Specific binding inhibition of [125I]AII to Angiotensin II receptor, type 1 in rat liver membrane
- Format: cell membranes
Listed below: IC50 values for each entry.

# Structure as smiles, Unit descriptor, IC50
measured = [
    ("CCCCOC(=O)NS(=O)(=O)c1ccccc1-c1ccc(Cn2c(CCCC)nc(SC)c2C(=O)O)cc1", "nM", 0.1),
    ("CCCCc1nc(SC)c(C(=O)NCC(=O)O)n1Cc1ccc(-c2ccccc2S(=O)(=O)NC(=O)NCCC)cc1", "nM", 1.5),
    ("CCCCc1nc(SCSC)c(C(=O)O)n1Cc1ccc(-c2ccccc2S(=O)(=O)NC(=O)NCCC)cc1", "nM", 0.2),
    ("CCCCc1nc(S(C)(=O)=O)c(C(=O)O)n1Cc1ccc(-c2ccccc2S(=O)(=O)NC(=O)NCCC)cc1", "nM", 3.2),
    ("CCCCc1nc(SC)c(C(=O)O)n1Cc1ccc(-c2ccccc2S(=O)(=O)NC(=O)N(CC)CC)cc1", "nM", 4.7),
    ("CCCCc1nc(SC)c(C(=O)O)n1Cc1ccc(-c2ccccc2S(=O)(=O)NC(=O)OCC)cc1", "nM", 0.9),
    ("CCCCc1nc(SC)c(C(=O)O)n1Cc1ccc(-c2ccccc2S(N)(=O)=O)cc1", "nM", 36),
    ("CCCCc1nc(Sc2ccccc2)c(C(=O)O)n1Cc1ccc(-c2ccccc2S(=O)(=O)NC(=O)NCCC)cc1", "nM", 0.3),
]
